# METHOD: cytotoxicity in L6 cells
# Assay type: cell-based, rat
# CONDITIONS_USED: rat, IC50 Cytotoxicity
For each of the compounds below, state its IC50 at 72 h.
Give bare numbers, in µM.

Some solved cases for reference:
# COMPOUND, OBSERVED
records = [
    ("C=C(C)C1CCC2(C(=O)O)CCC3(C)C(CCC4C5(C)C(C(=O)O)C(OC(=O)c6ccccc6)C(C)(C)C5CCC43C)C12 [Compound 15, (1R, 3S)-3-O-benzoyl ceanothic acid]", 16.4),
    ("COc1cc([C@@H]2OC[C@@H]3[C@H]2CO[C@H]3c2cc(OC)c(O)c(OC)c2)cc(OC)c1O [Compound 30]", 13),
]

Batch lookup, IC50 at 72 h per entry.
1. C=C(C)[C@@H]1CC[C@]2(C(=O)O)CC[C@]3(C)[C@H](CC[C@@H]4[C@@]5(C)C[C@@H](O)[C@H](OC(=O)/C=C/c6ccc(O)cc6)C(C)(C)[C@@H]5CC[C@]43C)[C@@H]12 [Compound 18, 3-O-trans-p-coumaroylalphitolic acid]
2. CCC(C)[C@@H]1NC(=O)[C@@H]2[C@H](CCN2C(=O)[C@H](Cc2c[nH]c3ccccc23)NC(=O)[C@H](CC(C)C)NC)Oc2ccc(OC)c(c2)/C=C\NC1=O (stereo partly shown) [Compound 12, mauritine M]

Out:
[15.8, 31.8]
